- assay-comment: Cellular viability qHTS for adrenocortical cancer (ACC) cell line SW-13 (AID 1963989);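 note: cells grown in serum-free medium with ITS supplement; % is set by controls: 0 for no effect and ±100 for the full control effect; nearly all actives have a fitted effect of over 65% in size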
- assay-setup: SW-13 ACC cells viability, CellTiter-Glo, 48 h; hits give low values
Records with an inconclusive call do not appear.
Recorded activity (max response) for the following molecules
quantity-measured: activity (max response) (%)

> print(dat)
                                    molecule  observed
 1  CC1CCc2c(N3CCC(O)CC3)c(F)cc3c(=O)c(C(=O)O)cn1c23 (configuration not stated)     -4.15
 2          CN(C)C(=O)Oc1cccc([N+](C)(C)C)c1      16.2
 3  O=P(O)(O)OCC(O)CO (configuration not stated)      10.4
 4  CCCCCCCCCCCCCCCCCC(=O)OCC(O)CO (configuration not stated)      5.37
 5       Nc1ccn([C@@H]2CS[C@H](CO)O2)c(=O)n1      7.41
 6            O=C1c2ccccc2-c2n[nH]c3cccc1c23     -13.1
 7  COCCOc1cnc2ccn([C@H](C)c3nnc4c(F)cc(-c5cnn(C)c5)cn34)c(=O)c2c1     -16.1
 8  CC(C(=O)O)c1ccc(C(=O)c2ccccc2)s1 (configuration not stated)     -5.09
 9                        O=C(O)[C@@H]1CSCN1     -7.21
10  Cc1[nH]c(/C=C2\C(=O)Nc3ccc(F)cc32)c(C)c1C(=O)NC[C@H](O)CN1CCOCC1     -9.94
11                      O=C(CCCl)NCCc1ccccc1     -1.73
12                          O=C(O)CP(=O)(O)O      1.41
13  NS(=O)(=O)c1cc2c(cc1Cl)NC(CC1CCCC1)NS2(=O)=O (configuration not stated)      10.5
14                         Cc1coc2ccccc2c1=O      19.3
15  CC(C)NCC(O)c1cc(O)cc(O)c1 (configuration not stated)      13.2
16    C/C(O)=C(\C#N)C(=O)Nc1ccc(C(F)(F)F)cc1     -8.43
17  CN1CCCCC1CCN1c2ccccc2Sc2ccc(S(C)=O)cc21 (configuration not stated)     -6.63
18  C[C@@]1(c2ncncc2F)NC(=O)c2cc(-c3cn[nH]c3)ccc21     -10.1
19        Cc1ccccc1N1CCN(CCc2nnc3n2CCCC3)CC1      9.97
20  CC(=O)OC(C)OC(=O)C(C)c1ccc(-c2ccccc2)c(F)c1 (configuration not stated)      9.22
21  CNC(=O)Cn1cc(-c2ccc3c(c2)C(F)CC32NC(=O)N(CC(=O)N(Cc3ccc(F)cc3)[C@@H](C)C(F)(F)F)C2=O)cn1 (some centres not stated)      8.67
22           O=C(O)c1cc(-c2ccccc2)nc2ccccc12      10.7
23  CN(C)CCOC(=O)C(c1ccccc1)C1(O)CCCC1 (configuration not stated)      6.08
24         OCc1ccc(-c2ccc(-c3ccc(CO)s3)o2)s1     -9.77
25  CCCCCCCCCCCCCCCC(=O)O[C@H]1[C@@H](O)[C@@H](O)[C@@H]([C@H](NC(=O)[C@@H]2C[C@@H](CCC)CN2C)[C@H](C)Cl)O[C@@H]1SC      13.6
26  N#Cc1ccnc(N2C(=O)CC[C@H]2C(=O)N(c2cncc(F)c2)[C@H](C(=O)NC2CC(F)(F)C2)c2ccccc2Cl)c1       6.3
27                   O=C(NNc1ccccc1)c1ccncc1      1.69
28  CONC(=O)Nc1ccc(-c2sc3c(c2CN(C)Cc2ccccc2)c(=O)n(-c2ccccc2)c(=O)n3Cc2c(F)cccc2F)cc1     -8.17
29  C=CCSCC1Nc2cc(Cl)c(S(N)(=O)=O)cc2S(=O)(=O)N1 (configuration not stated)      6.34
30  CCCc1ccc(OCC(=O)N2CCN(C(=O)COc3ccc(CCC)cc3OC)CC2)c(OC)c1      4.95
31          O=C(O)CNC(=O)c1nc(Cl)c2ccccc2c1O      8.31
32        CCN(CC)CCSC(=O)C(c1ccccc1)c1ccccc1     -19.1
33       CC(C)NC[C@@H](O)COc1ccc(CC(N)=O)cc1       7.4
34                     CN1CCC[C@@H]1c1cccnc1     -8.92
35               CC12CC3CC(C)(C1)CC(N)(C3)C2     -3.68
36  O=C(O)CCNc1cc(N2CCc3ccccc3CC2)nc(-c2ccccn2)n1     0.209
37  CC(C)OC(=O)c1cc(C(=O)OC(C)C)cc([N+](=O)[O-])c1      4.98
38  Nc1ncnc2nc(-c3ccc(N4CCOCC4)nc3)cc(-c3cccc(Br)c3)c12     -17.8
39            CN1CCN(C(c2ccccc2)c2ccccc2)CC1     -4.21
40               CCOc1cc(NC(C)=O)ccc1C(=O)OC      1.95
41  CCN(Cc1ccncc1)C(=O)C(CO)c1ccccc1 (configuration not stated)    -0.134
42  COc1nc(C)cnc1NS(=O)(=O)c1cccnc1-c1ccc(-c2nnco2)cc1      3.93
43                   O=C1NS(=O)(=O)c2ccccc21     0.607
44            Cn1c([N+](=O)[O-])cnc1COC(N)=O     -4.89
45  Cc1ccccc1-n1c(Cn2nc(-c3cccc(O)c3)c3c(N)ncnc32)nc2cccc(C)c2c1=O     -11.8
46    NC(=O)C(=O)N/N=C/c1ccc([N+](=O)[O-])o1     -15.1
47                    CCC(=O)c1c(O)cc(O)cc1O     -1.99
